assay: Example 8 pharmacokinetics assay for PKPD study (plasma, tumor, liver); assay type: in vivo, BALB/c nude mice; details: mouse, tumor, po, 10 mg/kg, p.o., single dose; 1 h; read-out: Concentration in Tumor (mean ± SEM)
Assign concentration at 1 h to each entry below.
Give bare numbers, in ng/g.

Consider the following illustrative entries.
{"compound": "CCN(C)S(=O)(=O)Nc1ccc(F)c(Oc2ccc3ncn(C4CC5(CCN(C6CCC(c7cc8c(cc7F)c(N7CCC(=O)NC7=O)nn8C)CC6)CC5)C4)c(=O)c3c2)c1C#N (single isomer, unassigned) [Compound 8]", "concentration at 1 h, ng/g": 394}
{"compound": "CCN(C)S(=O)(=O)Nc1ccc(F)c(Oc2ccc3ncn([C@H]4COC5(CCN(C6CC7(C6)CN(c6cc8c(cc6F)c(N6CCC(=O)NC6=O)nn8C)C7)CC5)C4)c(=O)c3c2)c1C#N [Compound 26]", "concentration at 1 h, ng/g": 1900}

Turning now to a further record.
Query: What does the data say about its concentration at 1 h? Entry: CCN(C)S(=O)(=O)Nc1ccc(F)c(Oc2ccc3ncn([C@H]4COC5(CCC(N6CCC(c7cc8c(cc7F)c(N7CCC(=O)NC7=O)nn8C)C(F)(F)C6)CC5)C4)c(=O)c3c2)c1C#N (single isomer, unassigned) [Compound 38]
Reply: 3320

---

test: Pharmacokinetics after 21 days dosing in the efficacy study (plasma, tumor and brain concentrations; plasma AUC at steady state), Example 14; assay type: in vivo, female BALB/c nude mice; conditions: mouse, plasma, po; 2 mg/kg p.o. TID x 21 days; 10 h; mean ± SEM
propertyMeasured: concentration at 10 h (ng/mL)
Answers are plain numbers, in ng/mL.

Query: What does the data say about its concentration at 10 h? Entry: `CCN(C)S(=O)(=O)Nc1ccc(F)c(Oc2ccc3ncn([C@H]4COC5(CCN(C6CC7(C6)CN(c6cc8c(cc6F)c(N6CCC(=O)NC6=O)nn8C)C7)CC5)C4)c(=O)c3c2)c1C#N`
Reply: 1550

---

assay: Pharmacokinetics in female BALB/c nude mice bearing A375 xenografts, 1 day dosing (PK and PD study): plasma, tumor and brain concentrations, AUC; format: in vivo; details: mouse, plasma, po, 6 mg/kg, 6 mg/kg p.o. QD × 1 day; 4 h; read-out: Mean Concentration in Plasma ± SEM
propertyMeasured: concentration at 4 h (ng/mL)
One number for each entry, in ng/mL.

Query: What does the data say about its concentration at 4 h? Entry: CCN(C)S(=O)(=O)Nc1ccc(F)c(Oc2ccc3ncn([C@H]4COC5(CCN(C6CC7(C6)CN(c6cc8c(cc6F)c(N6CCC(=O)NC6=O)nn8C)C7)CC5)C4)c(=O)c3c2)c1C#N [Compound 26]
Reply: 6670

---

Assay: Pharmacokinetics after 21 days dosing in the efficacy study (plasma, tumor and brain concentrations; plasma AUC at steady state), Example 14
Assay type: in vivo, female BALB/c nude mice
Conditions: mouse, plasma, po; 6 mg/kg p.o. QD x 21 days; 0.25 h; mean ± SEM
Method: Agents were tested in the A375 human melanoma xenografts. […] Dabrafenib, Compound 26 and Compound 141 in female BALB/c nude mice plasma (K2-EDTA), tumor and brain homogenate were analyzed by LC-MS/MS (Triple Quad 6500+ Low Mass). […]
propertyMeasured: concentration at 0.25 h (ng/mL)
Answers are plain numbers, in ng/mL.

Query: What does the data say about its concentration at 0.25 h? Entry: CCN(C)S(=O)(=O)Nc1ccc(F)c(Oc2ccc3ncn([C@H]4COC5(CCN(C6CC7(C6)CN(c6cc8c(cc6F)c(N6CCC(=O)NC6=O)nn8C)C7)CC5)C4)c(=O)c3c2)c1C#N [Compound 26]
Reply: 4440
